Exercise: state measured reverse-splicing fitness for each of the variants provided.
B1: Azoarcus group I ribozyme (parent)
chain: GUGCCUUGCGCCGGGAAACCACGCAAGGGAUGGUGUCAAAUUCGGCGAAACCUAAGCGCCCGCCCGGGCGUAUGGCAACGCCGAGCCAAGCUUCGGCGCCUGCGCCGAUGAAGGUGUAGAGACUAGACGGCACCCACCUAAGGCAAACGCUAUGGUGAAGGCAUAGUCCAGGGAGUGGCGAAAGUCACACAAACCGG

# Variants of: B1
# procedure-details: reverse-splicing fitness (ratio to wild type); higher = more active; in vitro selection; Mg2+ level not given
Answers are plain numbers.

Consider the following illustrative entries.
INSERT INTO measurements (variant_key, assay_endpoint, result) VALUES
  ('C82G A120U A145C U176C', 'reverse-splicing fitness', 0.0798),
  ('A120U C150G C169U U176A', 'reverse-splicing fitness', 0.00472),
  ('C82A A120C A145G C150A C169G U176G', 'reverse-splicing fitness', 0.00638),
  ('C82A A111G C150U C169A U176C', 'reverse-splicing fitness', 0.0164),
  ('A111U A120U A145C C150A', 'reverse-splicing fitness', 0.0261);

// each variant listed below needs its reverse-splicing fitness
1. C82U A111C A120U C169A U176A
2. C82A A120G C150U U176C
3. C82G A111G A120C A145U C150A C169G U176G
4. C82U A111C A120C A145C C169U
5. C82A A111C A120G C150U C169A
6. A111G A120G A145G C150U U176A
7. A111G A120G C150G C169U U176A

Result:
1. 0.00309
2. 0.015
3. 0.00622
4. 0.0105
5. 0.00973
6. 0.0693
7. 0.0138
